# test-target: T1, lactate dehydrogenase (LDH)
# T1 construct: Coated at 500 ng/well as non-specific target; also called LDH polypeptide
# assay: phage ELISA
measurement-label: LDH (OD)

binder: RDTTSQWSWISRGWEFPGWRAAAGAPVPYPDPLEPRP [DGI-2-20R-3-C2]
endpoint-unit: OD
value: 1.1

binder: LGRTFVWGTCLHLSVSRFGHAAAGAPVPYPDPLEPRP [DGI-2-20F-PP-C3]
endpoint-unit: OD
value: 1

binder: SLFERSARSRYHGSPDCNGSAAAGAPVPYPDPLEPRP [DGI-2-20F-PP-A3]
endpoint-unit: OD
value: 1.2

binder: SAFGCPLPRALGGGGARFYAAAAGAPVPYPDPLEPRP [DGI-2-20F-PP-E11]
endpoint-unit: OD
value: 0.9

binder: GHGAGDWAAELFVCPVAFLTGFAWRAAAGAPVPYPDPLEPRP [DGI-2-20R-4-H2]
endpoint-unit: OD
value: 1.1

binder: CGGWGAMWEAWVQGLNGAGCAAAGAPVPYPDPLEPRP [DGI-2-20R-3-D4]
endpoint-unit: OD
value: 1.1

binder: MGVVLECEGGWSIPGQTCYFAAAGAPVPYPDPLEPRP [DGI-2-20R-3-C7]
endpoint-unit: OD
value: 1

binder: VLGADAGMIWFMDGCGIRCRAAAGAPVPYPDPLEPRP [DGI-2-20R-4-E6]
endpoint-unit: OD
value: 1

binder: VVRQGCMAFSGLCSGVTESEAAAGAPVPYPDPLEPRP [DGI-2-20R-3-C8]
endpoint-unit: OD
value: 1.1

binder: TIDVARRFGYGWWDLWLDGDAAAGAPVPYPDPLEPRP [DGI-2-20R-3-C3]
endpoint-unit: OD
value: 1.1

binder: SIILAGCVWVMPCGQNLGGVAAAGAPVPYPDPLEPRP [DGI-2-20F-PP-C4]
endpoint-unit: OD
value: 0.9

binder: DGI-2-40F-3-C8 (peptide) peptide: YGTAGLFLRRACTMSDPGDPLGRRGYTGWGVLWDEWVTGSAAAGAPVPYPDPLEPRP
endpoint-unit: OD
value: 0.9

binder: DRSRAPLCADKSGRWQRYRRAAAGAPVPYPDPLEPRP [DGI-2-20F-PP-C10]
endpoint-unit: OD
value: 0.9
